Target: Histone acetyltransferase RTT109 (Candida albicans (strain SC5314 / ATCC MYA-2876)) (UniProt Q5AAJ8)
Sequence (Q5AAJ8 whole entry, looked up): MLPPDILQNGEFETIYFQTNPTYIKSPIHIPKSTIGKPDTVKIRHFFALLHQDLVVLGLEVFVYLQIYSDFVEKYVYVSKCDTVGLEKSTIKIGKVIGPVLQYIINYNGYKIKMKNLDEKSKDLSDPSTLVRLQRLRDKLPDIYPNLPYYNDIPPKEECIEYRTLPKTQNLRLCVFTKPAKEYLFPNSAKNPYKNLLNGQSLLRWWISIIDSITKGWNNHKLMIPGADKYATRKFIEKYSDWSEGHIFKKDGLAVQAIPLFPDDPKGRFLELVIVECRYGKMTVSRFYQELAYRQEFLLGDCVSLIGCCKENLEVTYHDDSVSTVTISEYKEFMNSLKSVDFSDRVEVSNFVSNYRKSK
Experiment: C. albicans Rtt109 HAT inhibition curves – biochemical, cherry-picked hits, plate reader, dose response (AID 588764)
Details: Rtt109/Vps75 HAT activity
Results filed as inconclusive are left out.
The entries below are paired with their reported AC50.

O=C(c1nnsc1S(=O)c1ccc(Cl)cc1)N1CCOCC1 (stereo not given)    6.04 µM
Oc1cc2c(cc1O)C1c3ccc(O)c(O)c3OCC1(O)C2 (stereo not given)    6.08 µM
COc1ccc(-n2sc3ccc(F)cc3c2=O)cc1    6 µM
N#CC1=C(S)N(c2ccccc2)C(c2cccs2)NC1=O (stereo not given)    11.3 µM
Cc1ccc2c(c1)C1C[N+](C)(CC(=O)c3ccc(Cl)cc3Cl)CCC1N2C(=O)c1ccc(F)cc1 (stereo not given)    13.4 µM
CC(=O)Nc1ccc(NC(=O)c2nc(S(=O)(=O)Cc3ccccc3)ncc2Cl)cc1    6.3 µM
CCCC1(c2ccccc2)NC(=O)N(CC(=O)N(C)Cc2c(F)cccc2Cl)C1=O (stereo not given)    2.79 µM
O=c1c2ccccc2sn1-c1cc(S(=O)(=O)N2CCOCC2)ccc1N1CCOCC1    3.78 µM

Value of AC50 reported for the compound CCCCCCCCCCCCCCCC[N+](C)(C)CCN(Cc1ccc(OC)cc1)c1ncccn1 is 16.1 µM

Per the record, O=C(O)C1CCc2sc3[nH]c(=S)n(-c4ccccc4)c(=O)c3c21 (stereo not given) has AC50 of 9.94 µM

----------
Biological target: Histone acetyltransferase RTT109 (Candida albicans (strain SC5314 / ATCC MYA-2876)) (UniProt Q5AAJ8)
Assay: C. albicans Rtt109 HAT inhibition curves – biochemical, cherry-picked hits, plate reader, dose response (AID 588764)
Settings: Rtt109/Vps75 HAT activity
Records with an inconclusive call do not appear.
We begin with a simple list: items and their reported AC50.

O=c1c2ccccc2[se]n1-c1ccccc1    1.55 µM
Nc1nnc(SC2CC(=O)N(c3ccccc3)C2=O)s1 (centres undefined)    13.6 µM
Oc1cc2c(cc1O)[C@H]1c3ccc(O)c(O)c3OC[C@@]1(O)C2    7.81 µM
N#CC1=C(S)N(c2ccccc2)C(c2ccc(-c3cccc(Cl)c3)o2)NC1=O (centres undefined)    11.9 µM
Nc1nc2ccc(S(=O)(=O)N3CCCCC3)cc2s1    19.5 µM
CCOC(=O)/C=C/S(=O)(=O)c1ccc(NC(C)=O)cc1    5.88 µM

# evaluate next
// AC50 lookup, compound = Cc1cc(C)c2c(=O)n(CC(=O)N3CCC(N4CCCCC4)CC3)sc2n1 , result: 4.72 µM

----------
Biological target: Histone acetyltransferase RTT109 (Candida albicans (strain SC5314 / ATCC MYA-2876))
Assay: C. albicans Rtt109 HAT inhibition curves – biochemical, cherry-picked hits, plate reader, dose response (AID 588764)
Details: Rtt109/Vps75 HAT activity, at 19.5 µM (top of the series)
Results filed as inconclusive are left out. Active and inactive are the calls of the source. How the calls were made is not given here.
PARAMETER: activity change, negative = inhibition

CN(CC(=O)Nc1ccc(F)cc1)C(=O)COc1ccccc1Cc1ccccc1    inactive
Cc1ccc(S(=O)(=O)Nc2ccc(O)c3cccnc23)cc1    inactive
CCOC(=O)c1c(C)oc2c1c(C=NCCO)c(O)c1ccccc12    inactive
COc1cccc(-c2ccc(C#N)c(SCC(=O)NCCc3ccc(Cl)cc3)n2)c1    inactive
Cc1cc(C(=O)Nc2ccncc2)c(C)o1    inactive

So for CCOC(=O)C1=C(C)NC(C)=C(C(=O)OCC)C1C(=O)OCC(=O)NCCc1ccc(S(N)(=O)=O)cc1 , the logged activity change, negative = inhibition turned out to be inactive

CC(C)c1nnc(NC(=O)CCC(=O)NCc2cccs2)s1 yielded activity change, negative = inhibition of inactive

Record Cc1nc2ccccc2n1CC(=O)NC1CCCC1 , field activity change, negative = inhibition: inactive
